Below are IC50 values recorded for PIK3CD (Human).

Some entries whose results are on file:
- CC[C@H](Nc1nc(N)nc(N)c1C#N)c1nc2c(F)cc(F)cc2c(=O)n1-c1cc(F)cc(F)c1: 10 to 50 nM
- C[C@H](Nc1nc(N)nc(N)c1C#N)c1nc2c(F)cccc2c(=O)n1-c1cc(F)cc(F)c1: 1 to 10 nM
- C[C@H](Nc1nc(N)nc(N)c1C#N)c1nc2cccc(S(C)(=O)=O)c2c(=O)n1-c1cc(F)cc(F)c1: 1 to 10 nM
- CC[C@H](Nc1nc(N)nc(N)c1C#N)c1nc2ccccc2c(=O)n1-c1cc(F)cc(F)c1: 10 to 50 nM
- C[C@H](Nc1nc(N)nc(N)c1C#N)c1nc2cccc(F)c2c(=O)n1-c1cccc(C(F)(F)F)c1: 1 to 10 nM
- C[C@H](Nc1nc(N)nc(N)c1C#N)c1nc2ccc(F)c(Cl)c2c(=O)n1-c1cc(F)cc(F)c1: 1 to 10 nM
- Cc1ccc(F)c2c(=O)n(-c3cc(F)cc(F)c3)c([C@H](C)Nc3nc(N)nc(N)c3C#N)nc12: 1 to 10 nM

Attention now shifts to the item below.
[Q] What measured IC50 is associated with COc1cc(C(F)F)cc(-n2c([C@H](C)Nc3nc(N)nc(N)c3C#N)nc3cccc(Cl)c3c2=O)c1 on PIK3CD (Human)?
[A] 1 to 10 nM

###

molecular target: PIK3CD (Human)
pIC50: −log10 of the molar value.
pIC50 overview

Some entries whose results are on file:
• CC[C@H](Nc1nc(N)nc(N)c1C#N)c1nc2cccc(F)c2c(=O)n1-c1cccc(C(F)(F)F)c1 = 7.30 to 8.00
• C[C@H](Nc1nc(N)nc(N)c1C#N)c1nc2cccc(Cl)c2c(=O)n1-c1cc(F)cc(C#N)c1 = 8.00 to 9.00
• C[C@H](Nc1ncnc(N)c1C#N)c1nc2cccc(Cl)c2c(=O)n1-c1ccccc1 = ≥ 9.00

[Q] Which measured pIC50 value corresponds to C[C@H](Nc1nc(N)nc(N)c1C#N)c1nc2c(C#N)cc(F)cc2c(=O)n1-c1ccccc1 ?
[A] 8.00 to 9.00

[Q] Which measured pIC50 value corresponds to C[C@H](Nc1nc(N)nc(N)c1C#N)c1nc2cccc(Cl)c2c(=O)n1-c1cc(F)cc(OC(F)(F)F)c1 ?
[A] 8.00 to 9.00

[Q] Which measured pIC50 value corresponds to C[C@H](Nc1nc(N)nc(N)c1C#N)c1nc2c(F)ccc(C#N)c2c(=O)n1-c1ccccc1 ?
[A] 8.00 to 9.00

[Q] Which measured pIC50 value corresponds to CC[C@H](Nc1nc(N)nc(N)c1C#N)c1nc2c(F)ccc(F)c2c(=O)n1-c1cc(F)cc(F)c1 ?
[A] 7.30 to 8.00

[Q] Which measured pIC50 value corresponds to C[C@H](Nc1nc(N)nc(N)c1C(N)=O)c1nc2cccc(Cl)c2c(=O)n1-c1cc(F)cc(F)c1 ?
[A] 8.00 to 9.00
